test system: MDA-MB-453 breast cancer cells; test: cancer cell proliferation assay (Calcein); assay type: cell-based; conditions: 96 hours (FIG. 110)
MEASURE: inhibition of growth of MDA-MB-453 cells

{"MOLECULE": "CCCCNC(=O)N1CCc2c([nH]c3ccccc23)C1C(C)c1ccccc1 (stereo not shown)", "VALUE REPORTED": "inhibited the growth"}
{"MOLECULE": "CC(C)CC1c2[nH]c3ccccc3c2CCN1C(=O)C1CCC(CNC(=O)OC(C)(C)C)CC1 (stereo not shown)", "VALUE REPORTED": "inhibited the growth"}
{"MOLECULE": "CC(C)CC1c2[nH]c3ccccc3c2CCN1C(=O)CCc1ccccc1 (stereo not shown)", "VALUE REPORTED": "inhibited the growth"}
{"MOLECULE": "CC(C)CC1c2[nH]c3cc(F)ccc3c2CCN1C(=O)CNC(=O)OC(C)(C)C (stereo not shown)", "VALUE REPORTED": "inhibited the growth"}
